B1: EHEE_rd2_0191 (parent)
chain: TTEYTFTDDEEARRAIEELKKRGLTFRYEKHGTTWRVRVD

Variants of: B1
assay-overview: folding stability dG (cDNA display proteolysis); higher = more stable
stated-conditions: PBS, room temperature
Reported folding stability dG by item:
Report the value in kJ/mol with no unit label.

Solved cases (6 shown):
INSERT INTO measurements (var, unit_text, endpoint_result) VALUES
  ('D40A', 'kJ/mol', 8.55),
  ('T25Q', 'kJ/mol', 8.41),
  ('T1S', 'kJ/mol', 8.58),
  ('G23E', 'kJ/mol', 1.79),
  ('A15E', 'kJ/mol', 3.01),
  ('K20I', 'kJ/mol', 10.1);

QUERY: folding stability dG for D40I ?
RESULT: 11.8

QUERY: folding stability dG for L24E ?
RESULT: 4.62

QUERY: folding stability dG for T34M ?
RESULT: 8.7

QUERY: folding stability dG for R13V ?
RESULT: 7.05

QUERY: folding stability dG for R22W ?
RESULT: 7.45
